system: human MASP-2 (human, UniProt O00187 16-686)
Sequence (O00187 16-686): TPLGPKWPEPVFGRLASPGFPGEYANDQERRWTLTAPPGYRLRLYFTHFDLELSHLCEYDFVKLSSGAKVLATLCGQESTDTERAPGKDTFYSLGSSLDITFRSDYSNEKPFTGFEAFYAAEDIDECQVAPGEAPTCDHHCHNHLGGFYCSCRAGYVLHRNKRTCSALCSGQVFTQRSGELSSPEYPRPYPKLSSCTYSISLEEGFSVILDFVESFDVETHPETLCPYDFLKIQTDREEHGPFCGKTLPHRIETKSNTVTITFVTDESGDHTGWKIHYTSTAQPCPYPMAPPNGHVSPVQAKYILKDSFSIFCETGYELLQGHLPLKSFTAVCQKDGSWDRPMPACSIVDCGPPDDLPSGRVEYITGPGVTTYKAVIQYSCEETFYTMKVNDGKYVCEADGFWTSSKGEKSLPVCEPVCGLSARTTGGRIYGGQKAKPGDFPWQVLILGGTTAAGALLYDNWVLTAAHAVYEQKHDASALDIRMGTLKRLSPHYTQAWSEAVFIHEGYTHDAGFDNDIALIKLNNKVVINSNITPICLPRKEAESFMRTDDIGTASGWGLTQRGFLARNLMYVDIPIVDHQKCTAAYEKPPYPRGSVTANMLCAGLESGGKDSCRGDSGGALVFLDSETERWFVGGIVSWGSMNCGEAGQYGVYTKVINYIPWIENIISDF
assay text: cell-based or functional assay
Task for the reader: assign each of the following binders its reported Functional IC50, C3b deposition, human serum Exp #3.
Please respond with the number in nM and leave the unit unwritten.

Bench note: what Functional IC50, C3b deposition, human serum Exp #3 did scFv mother clone 17N16 (scFv, also called 17N16mc; 17N16m) scFv: QVQLQQSGPGLVKPSQTLSLTCAISGDSVSSTSAAWNWIRQSPSRGLEWLGRTYYRSKWYNDYAVSVKSRITINPDTSKNQFSLQLNSVTPEDTAVYYCARDPFGVPFDIWGQGTMVTVSSKLSGSASAPKLEEGEFSEARVSYVLTQPPSVSVAPGQTARITCGGNNIGSKNVHWYQQKPGQAPVLVVYDDSDRPSGIPERFSGSNSGNTATLTVSRVEAGDEADYYCQVWDTTTDHVVFGGGTKLTVLAAAGSEQKLISEEDLNSHHHHHH show?
24.8

Bench note: what Functional IC50, C3b deposition, human serum Exp #3 did scFv mother clone 4D9 (scFv, also called 4D9 (18L16)) scFv: QITLKESGPVLVKPTETLTLTCTVSGFSLSNARMGVSWIRQPPGKALEWLAHIFSNDEKSYSTSLKSRLTISKDTSKSQVVLTMTNMDPVDTATYYCARMRYSSSLYGMDVWGQGTRVTVSSKLSGSASAPKLEEGEFSEARVSYELIQPPSVSVSPGQTASITCSGDKLGDKYVSWYQQKPGRSPVLVIYRDTKRPSGIPERFSGSNSGNTATLTISGTQAMDEADYYCQAWDSSTVVFGGGTKLTVLAAAGSEQKLISEEDLNSHHHHHH show?
62.2

Bench note: what Functional IC50, C3b deposition, human serum Exp #3 did scFv mother clone 18L16 (scFv) scFv: QVTLKESGPVLVKPTETLTLTCTVSGFSLSNARMGVSWIRQPPGKALEWLAHIFSNDEKSYSTSLKSRLTISKDTSKSQVVLTMTNMDPVDTATYYCARMAILTAGGMDVWGQGTTVTVSSKLSGSASAPKLEEGEFSEARVSYVLTQPPSVSASPGQTASITCSGDKLGDKYVSWYQQKPGRSPVLVIYRDTKRPSGIPERFSGSNYGNTATLTISGTQAVDEADYYCQAWDSGSGVFGGGTKVTVLAAAGSEQKLISEEDLNSHHHHHH show?
52.3

Bench note: what Functional IC50, C3b deposition, human serum Exp #3 did scFv mother clone 3F22 (scFv) scFv: QVQLQQSGPGLVKPSQTLSLTCAISGDSVSSNSAAWNWIRQSPSRGLEWLGRTYYRSKWYNDYAVSVKSRITINPDTSKNQFSLQLNSVTPEDTAVYYCARDPFGVPFDIWGQGTMVTVSSKLSGSASAPKLEEGEFSEARVSYVLTQPPSVSVAPGQTARVTCGGNNIRSKNVHWYQQKPGQAPVLVVYDDTDRPSGIPERFSGSNSGNTATLTVSRVEAGDEADYYCQVWDTTTDHVVFGGGTKLTVLAAAGSEQKLISEEDLNSHHHHHH show?
41.4
